# System: finely wrinkled mouse model
# TEST: Anti-wrinkling effects of medicine application on finely wrinkled mouse model (tape stripping)
# Format: in vivo, hairless mouse (HR-1)
# Set-up: key: O: Remedied.; Δ: No alteration was found.; x: Aggravated
# APPLIED CONDITIONS: 100 μl applied to skin after each tape stripping, up to four weeks; 2 mM TAPI-1, 1% CGS27023A, 10% glycerol, 1% oleic acid
ASSAY READOUT: Wrinkling suppressing effects

>  <COMPOUND>
CCCCCCCC/C=C\CCCCCCCC(=O)O

>  <VALUE OBSERVED>
x

$$$$
>  <COMPOUND>
OCC(O)CO

>  <VALUE OBSERVED>
Δ

$$$$
>  <COMPOUND>
CC(C)C[C@H](CC(=O)NO)C(=O)N[C@@H](Cc1ccc2ccccc2c1)C(=O)N[C@@H](C)C(=O)NCCN

>  <VALUE OBSERVED>
∘

$$$$
>  <COMPOUND>
COc1ccc(S(=O)(=O)N(Cc2cccnc2)[C@@H](C(=O)NO)C(C)C)cc1 [CGS27023A]

>  <VALUE OBSERVED>
Δ

$$$$
